tgt: P2X7 receptor (Homo sapiens, UniProt Q99572)
Construct: endogenous in cells; host or cells: THP-1 cells differentiated with LPS and IFN-γ
Sequence (Q99572 1-595): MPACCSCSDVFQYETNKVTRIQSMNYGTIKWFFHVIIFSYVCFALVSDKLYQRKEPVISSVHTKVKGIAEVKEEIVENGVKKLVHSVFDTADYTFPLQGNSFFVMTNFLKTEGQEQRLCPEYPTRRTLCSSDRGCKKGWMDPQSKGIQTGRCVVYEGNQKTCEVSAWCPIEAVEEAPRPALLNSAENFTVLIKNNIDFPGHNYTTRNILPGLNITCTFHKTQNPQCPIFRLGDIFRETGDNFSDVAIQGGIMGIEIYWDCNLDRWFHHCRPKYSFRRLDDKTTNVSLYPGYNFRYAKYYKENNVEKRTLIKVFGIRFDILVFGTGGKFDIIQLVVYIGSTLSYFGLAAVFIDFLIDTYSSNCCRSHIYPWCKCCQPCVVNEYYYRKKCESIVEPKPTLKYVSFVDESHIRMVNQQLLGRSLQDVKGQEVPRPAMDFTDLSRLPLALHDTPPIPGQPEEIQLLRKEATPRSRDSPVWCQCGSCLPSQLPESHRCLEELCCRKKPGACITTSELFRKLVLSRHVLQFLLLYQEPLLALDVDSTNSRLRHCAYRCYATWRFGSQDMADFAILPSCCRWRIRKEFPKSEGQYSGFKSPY
measurement protocol: IL-1β release assay in differentiated THP-1 cells stimulated with BzATP (Example 9)
Assay type: cell-based
experimental context: four parameter logistic fit, read-out: IL-1β IC50
Assignment: determine reported pIC50 for the given molecules.
pIC50 (log units): -log10 of the concentration in mol/L.

Prompt line: What pIC50 value was documented for this molecule, `O=C(CC12CC3CC(CC(C3)C1)C2)Nc1cccc2c(=O)n(-c3ccc(Oc4ccc(Br)cc4)nc3)ccc12` ?
Response line: 9.49

Prompt line: Record request: pIC50 value, item O=C(Cc1ccc(Cl)c(C(F)(F)F)c1)Nc1cccc2c(=O)n(C3CCNC3)ccc12 (stereo not shown)
Response line: 7.80

Prompt line: Would you mind telling me what pIC50 value was observed for C[C@H](C(=O)Nc1cccc2c(=O)n(C3CNCC3O)ccc12)c1ccc(Cl)cc1 (stereo partly shown) ?
Response line: 7.70

Prompt line: Return reported pIC50; argument: `O=C(Cc1ccc(Cl)c(C(F)(F)F)c1)Nc1cccc2c(=O)n(-c3cc[nH]n3)ccc12`
Response line: 8.91

---

measurement protocol: Half-life in human liver microsomes (HLM)
Assay type: in vitro ADME
experimental context: pH 7.4, 1 μM compound, 0.78 mg/mL HLM, NADPH, 37° C.
reported property: half-life at 1 μM (h)
Lab book: enter the figure in h, no units written.

Prompt line: Quick one: half-life at 1 μM of O=C(CC1CCCCCC1)Nc1cccc2c(=O)n(C3CNCC3O)ccc12 (centres unmarked) ?
Response line: 1.38

Prompt line: Please look up its half-life at 1 μM: `Cc1ncccc1-n1ccc2c(NC(=O)Cc3ccc(C(F)(F)F)c(F)c3)cccc2c1=O`
Response line: 0.73

Prompt line: Item under review: `C[C@@H](C(=O)Nc1cccc2c(=O)n([C@H]3CCNC3)ccc12)c1ccc(Cl)c(Cl)c1` . Reported half-life at 1 μM?
Response line: 3.62

Prompt line: half-life at 1 μM lookup needed for O=C(Cc1ccc(Cl)c(C(F)(F)F)c1)Nc1cccc2c(=O)n(C3CNCC3O)ccc12 (centres unmarked) , thanks.
Response line: 1.85

Prompt line: Bench note: what half-life at 1 μM did `O=C(Cc1ccc(Cl)cc1F)Nc1cccc2c(=O)n(C3CC3)ccc12` show?
Response line: 0.54

---

tgt: P2X7 receptor (Homo sapiens)
Construct: endogenous in cells; host or cells: THP-1 cells differentiated with LPS and IFN-γ
measurement protocol: IL-1β release assay in differentiated THP-1 cells stimulated with BzATP (Example 9)
Assay type: cell-based
experimental context: four parameter logistic fit, read-out: IL-1β IC50
reported property: pIC50
Schema: pIC50 number; meaning minus log10 of the concentration expressed in molar units.

Prompt line: Using the record for O=C(CC1CCCCCC1)Nc1cccc2c(=O)n(C3CCNC3)ccc12 (stereo not shown) , report its pIC50.
Response line: 7.59

Prompt line: Name the reported pIC50 value associated with the molecule `O=C(CC1CCCCCC1)Nc1cccc2c(=O)n(C3CCNCC3)ccc12`
Response line: 6.69

Prompt line: // pIC50 lookup, key: `O=C(Cc1ccc(Cl)c(Cl)c1)Nc1cccc2c(=O)n(C3CCNCC3)ccc12`
Response line: 6.52

Prompt line: What does the data say about its pIC50? Entry: `Cc1ccc2c(=O)n([C@H]3CCNC3)ccc2c1NC(=O)Cc1ccc(C(F)(F)F)c(F)c1`
Response line: 7.40

Prompt line: What value of pIC50 has been reported for the following molecule? `CC12CC3CC(C)(C1)CC(CC(=O)Nc1cccc4c(=O)n(-c5cccnc5)ccc14)(C3)C2`
Response line: 8.49

Prompt line: GET /values?readout=pIC50&item= O=C(Cc1ccc(Cl)c(Cl)c1)Nc1cccc2c(=O)n(C3CCNC3)ccc12 (stereo not shown)
Response line: 6.90

Prompt line: What does the record list as pIC50 for `COc1ncccc1-n1ccc2c(NC(=O)Cc3ccc(Cl)c(C(F)(F)F)c3)cccc2c1=O` ?
Response line: 8.03

Prompt line: Query (molecule): `Cc1ccncc1-n1ccc2c(NC(=O)Cc3cccc(C(F)(F)F)c3F)cccc2c1=O` ; field requested: pIC50
Response line: 7.37

Prompt line: Give the measured pIC50 of `COc1ccc(-n2ccc3c(NC(=O)CC45CC6CC(CC(C6)C4)C5)cccc3c2=O)cn1` .
Response line: 8.62

Prompt line: Using the record for `O=C(CC12CC3CC(CC(C3)C1)C2)Nc1cccc2c(=O)n(-c3cccnc3Oc3ccccc3F)ccc12` , report its pIC50.
Response line: 8.39

Prompt line: pIC50 lookup needed for `Cc1ncccc1-n1ccc2c(NC(=O)Cc3ccc(C(F)(F)F)cc3C(F)(F)F)cccc2c1=O` , thanks.
Response line: 7.16

Prompt line: Entry `O=C(CC12CC3CC(CC(C3)C1)C2)Nc1cccc2c(=O)n(-c3cnc4ccccc4c3)ccc12` has what pIC50?
Response line: 7.24

Prompt line: I'd like to know its pIC50. The molecule in question is `COc1ncccc1-n1ccc2c(NC(=O)CC34CC5CC(CC(C5)C3)C4)cccc2c1=O`
Response line: 9.61

Prompt line: May I ask what pIC50 has been recorded for `C[C@H](C(=O)Nc1cccc2c(=O)n([C@H]3CCNC3)ccc12)c1ccc(Cl)c(Cl)c1` ?
Response line: 7.13

Prompt line: Data request, read-out pIC50, for `O=C(CC1(O)CCCCCC1)Nc1cccc2c(=O)n([C@@H]3CCNC3)ccc12`
Response line: 6.56

Prompt line: Any idea what its pIC50 is? The molecule is `C[C@@H](C(=O)Nc1cccc2c(=O)n([C@H]3CCNC3)ccc12)c1ccc(Cl)c(Cl)c1`
Response line: 7.46

Prompt line: Given `Cc1ccc2c(=O)n([C@H]3CCNC3)ccc2c1NC(=O)Cc1ccc(F)c(C(F)(F)F)c1` , state its recorded pIC50.
Response line: 7.96

Prompt line: Entry `Cc1ccc(Oc2ncccc2-n2ccc3c(NC(=O)CC45CC6CC(CC(C6)C4)C5)cccc3c2=O)c2c1CCC2` has what pIC50?
Response line: 7.58

Prompt line: Data request, read-out pIC50, for CC(C(=O)Nc1cccc2c(=O)n(-c3cc[nH]n3)ccc12)C1CCCCCC1 (stereo not shown)
Response line: 7.91

Prompt line: Find the recorded pIC50 belonging to `O=C(Cc1ccc(F)c(Cl)c1)Nc1cccc2c(=O)n(C3CCC3)ccc12` and report it.
Response line: 7.32

Prompt line: Consider the molecule `O=C(CC12CC3CC(CC(C3)C1)C2)Nc1cccc2c(=O)n(C3CC3)ccc12` and give its measured pIC50.
Response line: 9.11

Prompt line: Tell me the measured pIC50 of CC(C(=O)Nc1cccc2c(=O)n(C3CCNC3)ccc12)c1ccc(Cl)cc1 (stereo not shown) , please.
Response line: 6.60

Prompt line: Data request, read-out pIC50, for `Cc1ccncc1-n1ccc2c(NC(=O)Cc3ccc(C(F)(F)F)cc3)cccc2c1=O`
Response line: 6.61

Prompt line: Look up pIC50: CC(C(=O)Nc1cccc2c(=O)n([C@H]3CCNC3)ccc12)c1ccc(Cl)cc1 (stereo partly shown)
Response line: 7.37

Prompt line: Query: pIC50; subject: `O=C(Cc1ccc(Cl)c(C(F)(F)F)c1)Nc1cccc2c(=O)n(C3CCNCC3)ccc12`
Response line: 7.00

Prompt line: What value of pIC50 has been reported for the following molecule? `O=C(Cc1ccc(F)c(C(F)(F)F)c1)Nc1cccc2c(=O)n(C3CC3)ccc12`
Response line: 8.27

Prompt line: Find the recorded pIC50 belonging to `O=C(Cc1cccc(C(F)(F)F)c1F)Nc1cccc2c(=O)n(-c3cccnc3F)ccc12` and report it.
Response line: 7.55

Prompt line: Requested read-out: pIC50. Entry: `O=C(CC1CCCCCC1)Nc1cccc2c(=O)n([C@H]3CCNC3)ccc12`
Response line: 8.49

Prompt line: Value lookup for pIC50; key = `O=C(Cc1ccc(C(F)(F)F)cc1)Nc1cccc2c(=O)n(C3CC3)ccc12`
Response line: 7.63

Prompt line: Which pIC50 is listed for `Cc1ccc(-n2ccc3c(NC(=O)CC45CC6CC(CC(C6)C4)C5)cccc3c2=O)c(C)n1` ?
Response line: 7.88

Prompt line: Suppose we examine the molecule `Cc1ncccc1-n1ccc2c(NC(=O)Cc3ccc(Cl)c(F)c3)cccc2c1=O` ; what pIC50 value has been reported?
Response line: 7.48

Prompt line: Returns the measured pIC50 for the input molecule. Input: CC(C(=O)Nc1cccc2c(=O)n(C3CCNC3)ccc12)c1ccc(Cl)c(Cl)c1 (stereo not shown)
Response line: 6.81

Prompt line: Need pIC50 of `O=C(Cc1ccc(Cl)c(C(F)(F)F)c1)Nc1cccc2c(=O)n(C3CCC3)ccc12` , thanks.
Response line: 8.21

Prompt line: Param item = `O=C(Cc1ccc(C(F)(F)F)cc1)Nc1cccc2c(=O)n(C3CCC3)ccc12` ; retrieve measured pIC50.
Response line: 6.55

Origin of the recorded values: patent US20090298825A1
